I'd be grateful if you could share measured inhibition for these entries.
target-desc: BDNF/NT-3 growth factors receptor (Homo sapiens);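 further: each value is a mean percent inhibition of TrkB kinase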
recorded-conditions: at 0.1 µM
Numbers only, in %.

smiles-repr	target-desc	inhibition (%)
Cc1nn(C)c2cc(N(C)c3ccnc(Nc4cccc(S(N)(=O)=O)c4)n3)ccc12	BDNF/NT-3 growth factors receptor (Homo sapiens)	2.64
CNC(=O)c1cncc(/C=C/c2c(Cl)cccc2Cl)c1	BDNF/NT-3 growth factors receptor (Homo sapiens)	2.99

Hey, quick one: what's inhibition for each of these?
1. COc1cc2ncn(-c3cc(O[C@@H](C)c4ccccc4Cl)c(C(N)=O)s3)c2cc1OC
2. CCN1CCC(CC(=O)Nc2n[nH]c3nc(-c4cccs4)c(Br)cc23)CC1
3. Nc1nc(-c2ccccn2)c(-c2ccc3ncccc3n2)s1
4. CCn1c(-c2nonc2N)nc2cnc(Oc3cccc(NC(=O)c4ccc(OCCN5CCOCC5)cc4)c3)cc21
5. Nc1ncnc2occ(-c3ccc(NC(=O)Nc4cccc(C(F)(F)F)c4)cc3)c12

Solution:
5.59
-0.35
2.11
3.18
59.4

Hey, quick one: what's inhibition for each of these?
1. COc1ccc(-c2coc3ncnc(N)c23)cc1
2. CS(=O)(=O)CCNCc1ccc(-c2ccc3ncnc(Nc4ccc(OCc5cccc(F)c5)c(C(F)(F)F)c4)c3c2)o1

Solution:
[2.05, 2.14]

Hey, quick one: what's inhibition for each of these?
1. Fc1cccc(COc2ccc(Nc3ncnc4sc(-c5cccs5)cc34)cc2Cl)c1
2. O=C1NC(=O)C(N2CCc3ccccc32)=C1c1ccc(Cl)cc1

Solution:
[1.85, 3.69]

* * *

target-desc: Rho-associated protein kinase 2 (Homo sapiens) (UniProt O75116);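 further: values are averaged inhibition readings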
Sequence (O75116 whole entry, looked up): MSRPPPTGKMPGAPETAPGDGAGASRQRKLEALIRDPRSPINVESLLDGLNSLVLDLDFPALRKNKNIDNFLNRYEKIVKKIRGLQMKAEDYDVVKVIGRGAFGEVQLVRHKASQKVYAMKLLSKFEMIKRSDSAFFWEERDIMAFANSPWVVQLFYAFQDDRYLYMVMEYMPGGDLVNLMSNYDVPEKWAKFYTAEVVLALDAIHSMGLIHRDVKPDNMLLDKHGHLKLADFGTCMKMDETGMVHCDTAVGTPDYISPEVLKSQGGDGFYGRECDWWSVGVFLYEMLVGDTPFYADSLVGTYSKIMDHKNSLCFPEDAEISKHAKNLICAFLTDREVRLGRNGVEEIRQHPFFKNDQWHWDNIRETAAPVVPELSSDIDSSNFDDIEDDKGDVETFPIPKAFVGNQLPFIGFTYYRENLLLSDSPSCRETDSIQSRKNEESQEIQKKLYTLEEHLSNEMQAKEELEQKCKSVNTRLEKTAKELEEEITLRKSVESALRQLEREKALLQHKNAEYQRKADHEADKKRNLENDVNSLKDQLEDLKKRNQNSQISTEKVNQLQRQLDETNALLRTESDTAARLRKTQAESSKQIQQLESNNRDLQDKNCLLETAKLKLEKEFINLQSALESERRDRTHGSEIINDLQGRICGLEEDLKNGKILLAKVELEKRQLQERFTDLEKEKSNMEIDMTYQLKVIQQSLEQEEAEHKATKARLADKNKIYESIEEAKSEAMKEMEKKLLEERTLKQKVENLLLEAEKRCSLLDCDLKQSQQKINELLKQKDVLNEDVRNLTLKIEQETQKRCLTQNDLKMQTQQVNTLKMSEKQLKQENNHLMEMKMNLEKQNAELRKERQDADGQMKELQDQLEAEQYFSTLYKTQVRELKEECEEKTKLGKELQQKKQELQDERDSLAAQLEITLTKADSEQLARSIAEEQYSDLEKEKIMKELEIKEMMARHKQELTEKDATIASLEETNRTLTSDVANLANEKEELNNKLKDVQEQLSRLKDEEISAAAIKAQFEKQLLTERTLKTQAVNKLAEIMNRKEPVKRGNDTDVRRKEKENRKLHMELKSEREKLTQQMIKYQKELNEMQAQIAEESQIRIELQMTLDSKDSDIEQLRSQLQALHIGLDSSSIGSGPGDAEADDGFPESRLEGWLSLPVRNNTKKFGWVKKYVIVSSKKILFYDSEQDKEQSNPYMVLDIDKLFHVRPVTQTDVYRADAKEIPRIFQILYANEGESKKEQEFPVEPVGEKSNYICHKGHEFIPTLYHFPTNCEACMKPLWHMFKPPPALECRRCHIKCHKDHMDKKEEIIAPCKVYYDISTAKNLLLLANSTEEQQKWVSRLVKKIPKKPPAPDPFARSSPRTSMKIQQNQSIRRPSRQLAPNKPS
recorded-conditions: at 0.1 µM
I'd be grateful if you could share measured inhibition for these entries.
Answers are plain numbers, in %.

// worked examples, inhibition included
smiles-repr	val
Fc1cccc(COc2ccc(Nc3ncnc4sc(-c5cccs5)cc34)cc2Cl)c1	0.99
COC(=O)Nc1nc2cc(Oc3ccc(NC(=O)Nc4cccc(C(=O)O)c4)cc3)ccc2[nH]1	2.14
COC(=O)Nc1nc2cc(Oc3cccc(NC(=O)Nc4cc(C(F)(F)F)ccc4F)c3)ccc2[nH]1	-1.5

Hey, quick one: what's inhibition for each of these?
1. CN1CCC(C(=O)Nc2n[nH]c3nnc(-c4ccccc4)cc23)CC1
2. COc1cc2ncn(-c3cc(OCc4ccccc4C(F)(F)F)c(C(N)=O)s3)c2cc1OC
3. CC(C)=Cc1cccc2c1/C(=N/Nc1ccc(S(N)(=O)=O)cc1)C(=O)N2
4. NS(=O)(=O)c1cccc(-c2ccc3c(NC(=O)C4CC4)n[nH]c3c2)c1
5. COc1ccccc1Nc1ncc(-c2ccccc2)o1
6. Cc1ccc(C(=O)NC2CCCCC2)cc1-c1ccc(C(=O)NCC2CC2)cc1

Solution:
3.27
3.56
3.96
0.53
4.07
1.31

Problem: Looking for the measured inhibition of "NCc1ccc(-c2nc(-c3ccc(Cl)c(O)c3)c(-c3ccncc3)[nH]2)cc1" , can you help?
Solution: -0.88

* * *

target-desc: Calcium/calmodulin-dependent protein kinase type II subunit alpha (Homo sapiens);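 further: reported value is a mean percent inhibition of CAMK2A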
recorded-conditions: at 1 µM
outcome-measure: inhibition
Put down the number, then write its unit next to it.

smiles-repr	inhibition
Fc1cccc(COc2ccc(Nc3ncnc4sc(-c5cccs5)cc34)cc2Cl)c1	-2.43%
CCn1c(-c2nonc2N)nc2cnc(Oc3cccc(NC(=O)c4ccc(OCCN5CCOCC5)cc4)c3)cc21	2.17%
O=C(Nc1n[nH]c2nc(-c3ccco3)c(Br)cc12)C1CC1	2.92%
COc1ccc(-c2nn3ncccc3c2-c2ccnc(Nc3ccc(Cl)c(C(F)(F)F)c3)n2)cc1	0.35%
CCn1c(-c2nonc2N)nc2cncc(C(=O)N3CCNCC3)c21	4.17%
COc1cc(C=NNc2ncnc3c2cnn3-c2ccccc2)ccc1O	5.31%
Cc1cccc(-c2n[nH]cc2-c2ccc3ncccc3n2)n1	-0.05%
CNC(=O)c1cncc(/C=C/c2c(Cl)cccc2Cl)c1	4.95%

Hey, quick one: what's inhibition for each of these?
1. COC(=O)Nc1nc2cc(Oc3cccc(NC(=O)Nc4cc(C(F)(F)F)ccc4F)c3)ccc2[nH]1
2. Nc1ncnc2occ(-c3ccc(NC(=O)Nc4cc(C(F)(F)F)cc(C(F)(F)F)c4)cc3)c12

Solution:
["0.78%", "2.09%"]

Attribution: ChEMBL document CHEMBL1961873
